Source listed as paper PMC10935503.

# Assay target: CYP2C19 (Homo sapiens, UniProt P33261)
# Sequence (P33261 whole entry): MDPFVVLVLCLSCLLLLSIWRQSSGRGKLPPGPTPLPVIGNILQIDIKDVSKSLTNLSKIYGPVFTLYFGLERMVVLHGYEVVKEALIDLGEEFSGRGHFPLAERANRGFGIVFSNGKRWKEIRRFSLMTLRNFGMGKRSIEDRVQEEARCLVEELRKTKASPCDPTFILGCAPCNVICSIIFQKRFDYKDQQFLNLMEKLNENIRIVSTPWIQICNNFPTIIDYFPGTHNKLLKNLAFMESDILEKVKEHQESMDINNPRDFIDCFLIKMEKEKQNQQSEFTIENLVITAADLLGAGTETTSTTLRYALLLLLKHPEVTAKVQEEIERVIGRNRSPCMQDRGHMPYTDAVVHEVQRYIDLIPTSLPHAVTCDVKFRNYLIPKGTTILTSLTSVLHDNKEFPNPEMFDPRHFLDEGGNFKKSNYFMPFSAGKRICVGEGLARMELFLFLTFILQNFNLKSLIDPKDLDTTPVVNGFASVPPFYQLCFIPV
Reported property: IC50 (µM)

> print(dat)
                                   compound                            assay.target  quantity.unit  readout.number
1  Cc1cc(/C=C/C#N)cc(C)c1Oc1nc(NC2CCN(Cc3ccc(S(N)(=O)=O)cc3)CC2)nc2c1SCCC2 [compound 23h]  CYP2C19 (Homo sapiens, UniProt P33261)             µM            15.6

====

Record type: IC50 measurement. Applies to: HIV-1 RT (Human immunodeficiency virus type 1 group M subtype B, UniProt P03366)
Reported property: IC50 (nM)

> print(dat)
                                   molecule  reported.property  readout.number
1  Cc1cc(C#N)cc(C)c1Oc1nc(Nc2ccc(C#N)cc2)nc2c1S(=O)(=O)CCC2 [compound 16b]               IC50              27
2  Cc1cc(/C=C/C#N)cc(C)c1Oc1nc(Nc2ccc(C#N)cc2)nc2c1SCCC2 [15b]               IC50             101
3  Cc1cc(/C=C/C#N)cc(C)c1Oc1nc(NC2CCN(Cc3ccc(S(N)(=O)=O)cc3)CC2)nc2c1SCCC2 [compound 23h]               IC50             529
4  Cc1cc(/C=C/C#N)cc(C)c1Nc1ccnc(Nc2ccc(C#N)cc2)n1 [RPV, rilpivirine, reference compound]               IC50             118

====

# Measurement notes: In vivo pharmacokinetics in SD rats
# Design: species or system Sprague–Dawley (SD) rats
# Assay conditions: Sprague-Dawley, rat, plasma, iv, 2 mg/kg
Reported property: clearance (mL/min/kg)

> print(dat)
                                   compound  readout.number
1  Cc1cc(C#N)cc(C)c1Oc1nc(Nc2ccc(C#N)cc2)nc(N)c1Br [ETR, etravirine, reference compound]              57
2  Cc1cc(/C=C/C#N)cc(C)c1Oc1nc(NC2CCN(Cc3ccc(S(N)(=O)=O)cc3)CC2)nc2c1SCCC2 [compound 23h]             277

====

# Tested on: HIV-1 Y188L
# Measurement notes: microbe, parasite or virus in culture
# Assay type: cell-based
# Assay conditions: selectivity index, ratio of CC50/EC50
Reported SI Y188L values are given for each entry in this list.
Reported property: SI Y188L

> print(dat)
                                   molecule  assay.target  reported.property  sign  readout.number
1  Cc1cc(C#N)cc(C)c1Oc1nc(Nc2ccc(C#N)cc2)nc2c1SCCC2 [compound 15a]   HIV-1 Y188L           SI Y188L     =             219
2  Cc1cc(C#N)cc(C)c1Oc1nc(Nc2ccc(C#N)cc2)nc2c1S(=O)(=O)CCC2 [compound 16b]   HIV-1 Y188L           SI Y188L     =            1520
3  Cc1cc(/C=C/C#N)cc(C)c1Oc1nc(NC2CCN(Cc3ccc(S(N)(=O)=O)cc3)CC2)nc2c1SCCC2 [compound 23h]   HIV-1 Y188L           SI Y188L     =             201
4  Cc1cc(C)c(Oc2nc(NC3CCN(Cc4ccc(S(N)(=O)=O)cc4)CC3)nc3c2SCCC3)c(C)c1 [23i]   HIV-1 Y188L           SI Y188L     ≥            5256
5  Cc1cc(C#N)cc(C)c1Oc1nc(NC2CCN(Cc3ccc(N)cc3)CC2)nc2c1SCCC2 [23f]   HIV-1 Y188L           SI Y188L     =             460
6  Cc1cc(C#N)cc(C)c1Oc1nc(NC2CCN(c3cccc(C(N)=O)c3)CC2)nc2c1SCCC2 [27b]   HIV-1 Y188L           SI Y188L     =             839
7  Cc1cc(/C=C/C#N)cc(C)c1Oc1nc(Nc2ccc(C#N)cc2)nc2c1SCCC2 [15b]   HIV-1 Y188L           SI Y188L     =             210
8  Cc1cc(C#N)cc(C)c1Oc1nc(NC2CCN(Cc3ccc(NS(C)(=O)=O)cc3)CC2)nc2c1SCCC2 [23g]   HIV-1 Y188L           SI Y188L     ≥             305
